Catalogue of apparent KD of MS2 coat protein values
System: MS2 coat protein
Test: apparent KD of MS2 coat protein; higher = weaker reporter binding
Settings: Eterna round: R107; input ligand: tryptophan 2.4 mM

Chain: UGUACUAUGUGAAGGAGCGAGAAUCCUACAUGAGGAUCACCCAUGUAAGAGCGAAAGCUCACUCAGGUAGGUCGCACAUAGUACU [#17 Same State - Arginine B]
apparent KD of MS2 coat protein (nM): 48.8

Chain: UAUCCACAUGAGGAUCACCCAUGUUAGGAAGGAGCGGUGAAUGAACCAGGUAGGUCGCCUAGCUGAGGACUGUCGAUGGAUUCGU [Exclusion - Arginine A (Freestyle 17)]
apparent KD of MS2 coat protein (nM): 20.5

Chain: AGUGUUAUAACUGAUACCAGACCUUUGCUUAUACAUGAGGAUCACCCAUGUAAAAUGGCUGUCCCUUGGCAGCAGAGAAUACACA [#07 Same State - Theophylline B]
apparent KD of MS2 coat protein (nM): 47.1

Chain: GCUAGGUCAUCGGCCGCCACUAACGAUGGCUCCGACAUGAGGAUCACCCAUGUGCCACUUGCGCAUAGGACCGGGAUGACCUAGC [SSTB NP+V+V2 #1]
apparent KD of MS2 coat protein (nM): 11.5

Chain: AGCGACAUGCGUGAUACCAGCUACAUGAGGAUCACCCAUGUAAGUAGGAAACUACUGUGUAGCCCUUGGCAGCACAAUGCAUGUC [Exclusion - Theophylline B (Freestyle 24)]
apparent KD of MS2 coat protein (nM): 20

* * *

Collected apparent KD of MS2 coat protein values appear next to each entry.
Test system: MS2 coat protein
Assay: apparent KD of MS2 coat protein; designed switch direction (-1 OFF switch, 1 ON switch): -1; higher = weaker reporter binding
Conditions: Eterna round: R95; input ligand: microRNA oligo, concentration not stated

Chain: AAAUACAAGCAAAGAUCUUACAUGAGGAUCACCCAUGUGCUCGUCUUAUAAAGUACUAUCACGAAAGUGAUAGUACA [Sensor 3, v1 - 29] (puzzle: Sensor v3, turn-off variant 1)
Measured on: MS2 coat protein
Value unit: nM
apparent KD of MS2 coat protein: 108

Chain: UAAUACAAGUAAAGAUCCUACAUGAGGAUCACCCAUGUGCUCGUCUUGUAAAGUACUAUCACGAAAGUGAUAGUACU [Mat - Sensor v3 - turn-off var 1 - Eli Mod - D86] (puzzle: Sensor v3, turn-off variant 1)
Measured on: MS2 coat protein
Value unit: nM
apparent KD of MS2 coat protein: 22

Chain: GGUGCGUUUGUGAGGAUAUGCUGGUCCUUGGGUCAGCAGAAGGCACAUGAGGAUCACCCAUGUGGUGUCGUACC [salish99_Bmod_Ex4_032] (puzzle: Brourd's mod of Exclusion 4)
Measured on: MS2 coat protein
Value unit: nM
apparent KD of MS2 coat protein: 178

Chain: GAAAAGGUAGGAUAUCGAGACCAUAACAUGAGGAUCACCCAUGUGAUACCUACAGUGGUCCGAGAAGGACCAUAUA [Iserdianqu] (puzzle: Exclusion 5)
Measured on: MS2 coat protein
Value unit: nM
apparent KD of MS2 coat protein: 20.4

Chain: GUCACUAGAGGAUAUACAAUGGUAUAUGAUCCUAGAGACAAACAUGAGGAUCACCCAUGUAGAAGGCUAGUAAU [Exclusion 2 - 3] (puzzle: Exclusion 2)
Measured on: MS2 coat protein
Value unit: nM
apparent KD of MS2 coat protein: 178

Chain: UUUAAUUUUUUUUUUUUACAAGCUUUUUGCUCGUCUUAUACAUGAGGAUCACCCAUGUGGGUAAGGGAUAAAUUAUC [JMF 37] (puzzle: Sensor v3, turn-off variant 2)
Measured on: MS2 coat protein
Value unit: nM
apparent KD of MS2 coat protein: 33.4

Chain: CAAAAGCGAGGAUAUACAUGAGGAUCACCCAUGUGGCAGCCAUGUAGGAGUGACGUCGGUAGAAGGCGCACCCU [Soaran] (puzzle: Exclusion 3)
Measured on: MS2 coat protein
Value unit: nM
apparent KD of MS2 coat protein: 76.2

Chain: AGCCUACAUGAGGAUCACCCAUGUCAGGAUAUCUCGCGACGUGUCGGGUUCACGUUGCAGAGAAGGGACUCGGG [Estibera] (puzzle: Exclusion 1)
Measured on: MS2 coat protein
Value unit: nM
apparent KD of MS2 coat protein: 46.4

Chain: AAUAAGCUAGGAUAUACAUGAGGAUCACCCAUGUGAGGGCACGGCCGGCGCGGGCCCGGUAGAAGGAGUCAUAA [Exc;s3-VI] (puzzle: Exclusion 3)
Measured on: MS2 coat protein
Value unit: nM
apparent KD of MS2 coat protein: 26.4

Chain: AGUACUAACACGAAAGUGUUCGUACAAUAAGCUUGUGAAACAUGAGGAUCACCCAUGUCCUCAUAAGCUCGUCUUAU [salish99_TOv2_r3_037] (puzzle: Sensor v3, turn-off variant 2)
Measured on: MS2 coat protein
Value unit: nM
apparent KD of MS2 coat protein: 810
